Where do these numbers come from? They come from the Immune Epitope Database (IEDB).

target: HLA-B*08:01; experiment: IEDB peptide-MHC binding, purified MHC/competitive/radioactivity; filed as Kd, often an IC50 or EC50 that approximates it; bounds were set here for any values at or beyond the usual limits of such assays; conditions: source organism: Homo sapiens
measurementKind: Kd (µM)

(I) ATGFKQSSKAL
(II) LTINKEEAL
Prompt: Lowest Kd? choose I or II Give the label of your selection.
Completion: II
